# condition-summary: human gut metagenome, 24 h, 2 µM; further: call rule not given here
experimental-endpoint: Bacterial Biotransformation

For record `CCCc1nc(C(C)(C)O)c(C(=O)OCc2oc(=O)oc2C)n1Cc1ccc(-c2ccccc2-c2nnn[nH]2)cc1` the listed Bacterial Biotransformation is Compound metabolized

response.value for CC(CN(C)C)CN1c2ccccc2CCc2ccccc21.O=C(O)/C=C\C(=O)O (centres undefined) [TRIMIPRAMINE MALEATE] (field: Bacterial Biotransformation) = Compound NOT metabolized

Bacterial Biotransformation recorded for this compound, O=c1[nH]c2ccccc2n1C1CCN(CCCC(c2ccc(F)cc2)c2ccc(F)cc2)CC1 [PIMOZIDE] , is Compound metabolized

What the record says about `CCOc1ccc(NC(C)=O)cc1` : Bacterial Biotransformation is Compound NOT metabolized

Sure, the documented Bacterial Biotransformation for COc1ccc2[nH]c([S+]([O-])Cc3ncc(C)c(OC)c3C)nc2n1 (centres undefined) is Compound NOT metabolized

Please go through the list and note Bacterial Biotransformation for each compound.
1. O=C(CCCN1CCC(O)(c2ccc(Cl)cc2)CC1)c1ccc(F)cc1
2. CCOC(=O)[C@H](CCc1ccccc1)N[C@@H](C)C(=O)N1[C@H](C(=O)O)C[C@@H]2CCC[C@@H]21
3. COc1cc2nc(N3CCN(C(=O)c4ccco4)CC3)nc(N)c2cc1OC
4. NC12CC3CC(CC(C3)C1)C2

output:
1. Compound NOT metabolized
2. Compound metabolized
3. Compound NOT metabolized
4. Compound NOT metabolized

* * *

# condition-summary: human gut metagenome, 24 h, 2 µM
experimental-endpoint: Bacterial Biotransformation

Item: CC[C@H](C)C(=O)O[C@H]1C[C@@H](C)C=C2C=C[C@H](C)[C@H](CC[C@@H]3C[C@@H](O)CC(=O)O3)[C@H]21 [LOVASTATIN] | Bacterial Biotransformation: Compound NOT metabolized

Clc1ccc(Cn2c(CN3CCCC3)nc3ccccc32)cc1 [CLEMIZOLE] yielded Bacterial Biotransformation of Compound metabolized

Summary for this molecule, CC(C)(C)NC[C@H](O)COc1ccccc1C1CCCC1.CC(C)(C)NC[C@H](O)COc1ccccc1C1CCCC1.O=S(=O)(O)O [PENBUTOLOL SULFATE] : Bacterial Biotransformation is Compound metabolized

Short answer for CC(C)NCC(O)c1ccc(NS(C)(=O)=O)cc1 (centres undefined) [SOTALOL] : Bacterial Biotransformation was Compound NOT metabolized

* * *

# measurement-notes: The drug is tested on WLS-086 corresponding to human gut metagenome with ENA study accession number: PRJEB37062 and ENA sample accession number: ERS12561752 for biotransformation under anaerobic condition. The drug concentrations were measured over 9 timepoints collected between 0 and 24 hours of incubation by liquid-chromatography-coupled mass spectrometry (LC–MS)
# condition-summary: 2 µM
experimental-endpoint: Bacterial Biotransformation

Field Bacterial Biotransformation (entry CCN(CC)CCOC(=O)C(Cc1cccc2ccccc12)CC1CCCO1.O=C(O)C(=O)O (stereo not given) [NAFRONYL OXALATE] ) reads Compound metabolized

// recorded Bacterial Biotransformation for CN1CCOC(c2ccccc2)c2ccccc2C1 (stereo not given) [NEFOPAM] : Compound metabolized

Value of Bacterial Biotransformation reported for the molecule CCN(CC)CCOCCOC(=O)C1(c2ccccc2)CCCC1.O=C(O)CC(O)(CC(=O)O)C(=O)O [CARBETAPENTANE CITRATE] is Compound NOT metabolized

Lab note: OC(CCN1CCCCC1)(c1ccccc1)C1CCCCC1 (stereo not given) [TRIHEXYPHENIDYL] gave Bacterial Biotransformation of Compound metabolized

Kindly consider the entry below.
// Bacterial Biotransformation lookup, molecule = CC(C)(C#N)c1cc(Cn2cncn2)cc(C(C)(C)C#N)c1 [ANASTROZOLE] , result: Compound NOT metabolized

Just for reference, ChEMBL document CHEMBL5724914 is where these values come from.
